Reported ELISA Signal is given for each of the following binders.
# SYSTEM_TESTED: LINGO-1 (human) (UniProt Q96FE5)
# METHOD_DESCRIPTION: ELISA
Reply with the value as a number alone.

>  <BINDER>
Li62 variant G08 Fab (VH CDR3 SEQ ID NO:27) (Fab, V domains shown) VH: EVQLLESGGGLVQPGGSLRLSCAASGFTFSIYPMFWVRQAPGKGLEWVSWIGPSGGITKYADSVKGRFTISRDNSKNTLYLQMNSLRAEDTATYYCAREGQYDWYFDVWGRGTLVTVSS VL: DIQMTQSPSFLSASVGDSVAITCRASQDISRYLAWYQQRPGKAPKLLIYDASNLQTGVPSRFSGSGSGTDFTFTITSLQPEDFGTYYCQQYDTLHPSFGPGTTVDIK

>  <QUANTITY_NAME>
ELISA Signal

>  <REPORTED>
3

$$$$

Query: Please give the documented ELISA Signal of Li62 variant D09 Fab (VH CDR3 SEQ ID NO:21) (Fab, V domains shown) VH: EVQLLESGGGLVQPGGSLRLSCAASGFTFSIYPMFWVRQAPGKGLEWVSWIGPSGGITKYADSVKGRFTISRDNSKNTLYLQMNSLRAEDTATYYCAREADIDWFFDLWGRGTLVTVSS VL: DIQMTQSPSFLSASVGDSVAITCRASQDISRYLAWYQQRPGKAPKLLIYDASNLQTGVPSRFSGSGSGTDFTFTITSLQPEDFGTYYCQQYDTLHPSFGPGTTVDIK
Reply: 3

Query: Give ELISA Signal for the following binder: Li113 Fab (Li62 variant C02, VH CDR3 SEQ ID NO:30) (Fab, V domains shown) VH: EVQLLESGGGLVQPGGSLRLSCAASGFTFSIYPMFWVRQAPGKGLEWVSWIGPSGGITKYADSVKGRFTISRDNSKNTLYLQMNSLRAEDTATYYCAREGTYDWYLDLWGRGTLVTVSS VL: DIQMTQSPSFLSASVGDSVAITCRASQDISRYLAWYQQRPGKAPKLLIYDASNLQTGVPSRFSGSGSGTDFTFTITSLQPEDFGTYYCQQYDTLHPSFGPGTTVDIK
Reply: 3
